This collection of values is drawn from paper PMC8107365.

System: HeLa cells
ASSAY SUMMARY: Toxicity against HeLa cells (calcein AM, fluorescence microscopy)
Type: cell-based, human
CONDITION CONTEXT: overview Figure 5
Protocol: HeLa TK A549 cells (from DSMZ, Braunschweig, Germany) were cultivated in minimal essential medium (MEM) with 10% fetal calf serum (FCS) (PAA, Cöble, Germany), and Glutamax (Invitrogen, Karlsruhe, Germany), without antibiotics. Cell density after incubation over night was 30000 cells/chamber in 300 µL medium. […] A confocal microscope type SP 5 from Leica was used for fluorescence microscopy. […]
Where a SMILES comes first, the peptide text is derived from it.
REPORTED PROPERTY: Toxicity (HeLa)

N=C(N)NCCC[C@H](NC(=O)CN)C(=O)N[C@@H](CCCCN)C(=O)N[C@@H](CCCCN)C(=O)N[C@@H](CCCNC(=N)N)C(=O)N[C@@H](CCCNC(=N)N)C(=O)N[C@@H](CCC(N)=O)C(=O)N[C@@H](CCCNC(=N)N)C(=O)N[C@@H](CCCNC(=N)N)C(=O)N[C@@H](CCCNC(=N)N)C(=O)N1CCC[C@H]1C(=O)N1CCC[C@H]1C(=O)N[C@@H](CCC(N)=O)C(=O)O; -
CC(C)C[C@H](NC(=O)[C@H](C)NC(=O)[C@H](CCCCN)NC(=O)[C@H](CC(C)C)NC(=O)[C@H](C)NC(=O)[C@H](CC(C)C)NC(=O)[C@H](CCCCN)NC(=O)[C@H](CC(C)C)NC(=O)[C@H](C)NC(=O)[C@H](CC(C)C)NC(=O)[C@@H](N)CCCCN)C(=O)N[C@@H](CCCCN)C(=O)N[C@@H](C)C(=O)N[C@@H](C)C(=O)N[C@@H](CC(C)C)C(=O)N[C@@H](CCCCN)C(=O)N[C@@H](CC(C)C)C(=O)N[C@@H](C)C(N)=O; +++
CC[C@H](C)[C@H](NC(=O)[C@H](CCCCN)NC(=O)[C@H](CCCCN)NC(=O)[C@H](Cc1ccccc1)NC(=O)[C@H](CC(C)C)NC(=O)[C@H](CCCCN)NC(=O)[C@@H](N)CCCCN)C(=O)N[C@@H](CC(C)C)C(=O)N[C@@H](CCCCN)C(=O)N[C@@H](Cc1ccc(O)cc1)C(=O)N[C@@H](CC(C)C)C(N)=O; +++
CC[C@H](C)[C@H](NC(=O)[C@H](C)NC(=O)CNC(=O)[C@H](C)NC(=O)[C@H](CCCCN)NC(=O)[C@H](CO)NC(=O)[C@H](C)NC(=O)[C@H](CCSC)NC(=O)CN)C(=O)N[C@@H](C)C(=O)NCC(=O)N[C@@H](CCCCN)C(=O)N[C@H](C(=O)N[C@@H](C)C(=O)N[C@@H](CCCCN)C(=O)N[C@H](C(=O)N[C@@H](C)C(=O)N[C@@H](CC(C)C)C(=O)N[C@@H](CCCCN)C(=O)N[C@@H](C)C(=O)N[C@@H](CC(C)C)C(N)=O)C(C)C)[C@@H](C)CC [PGLa] (H-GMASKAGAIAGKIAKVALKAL-NH2); +

====

Tested on: Enterobacter helveticus (DSM 18396)
CONDITION CONTEXT: serial 2-fold dilution, 1% TSB, overnight 37°C, triplicate; lowest concentration inhibiting growth in at least two repetitions
Where a SMILES comes first, the peptide text is derived from it.
The entries below are paired with their reported MIC E. helveticus.
Answer format: value, then unit.

Example entries and their recorded answers appear below.
CC[C@H](C)[C@H](NC(=O)[C@H](C)NC(=O)CNC(=O)[C@H](C)NC(=O)[C@H](CCCCN)NC(=O)[C@H](CO)NC(=O)[C@H](C)NC(=O)[C@H](CCSC)NC(=O)CN)C(=O)N[C@@H](C)C(=O)NCC(=O)N[C@@H](CCCCN)C(=O)N[C@H](C(=O)N[C@@H](C)C(=O)N[C@@H](CCCCN)C(=O)N[C@H](C(=O)N[C@@H](C)C(=O)N[C@@H](CC(C)C)C(=O)N[C@@H](CCCCN)C(=O)N[C@@H](C)C(=O)N[C@@H](CC(C)C)C(N)=O)C(C)C)[C@@H](C)CC [PGLa] (H-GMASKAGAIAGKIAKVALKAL-NH2); 16.3 µM
CC[C@H](C)[C@H](NC(=O)[C@H](CCCCN)NC(=O)[C@H](CCCCN)NC(=O)[C@H](Cc1ccccc1)NC(=O)[C@H](CC(C)C)NC(=O)[C@H](CCCCN)NC(=O)[C@@H](N)CCCCN)C(=O)N[C@@H](CC(C)C)C(=O)N[C@@H](CCCCN)C(=O)N[C@@H](Cc1ccc(O)cc1)C(=O)N[C@@H](CC(C)C)C(N)=O; 6.3 µM
CC(C)C[C@H](NC(=O)[C@H](C)NC(=O)[C@H](CCCCN)NC(=O)[C@H](CC(C)C)NC(=O)[C@H](C)NC(=O)[C@H](CC(C)C)NC(=O)[C@H](CCCCN)NC(=O)[C@H](CC(C)C)NC(=O)[C@H](C)NC(=O)[C@H](CC(C)C)NC(=O)[C@@H](N)CCCCN)C(=O)N[C@@H](CCCCN)C(=O)N[C@@H](C)C(=O)N[C@@H](C)C(=O)N[C@@H](CC(C)C)C(=O)N[C@@H](CCCCN)C(=O)N[C@@H](CC(C)C)C(=O)N[C@@H](C)C(N)=O; 3.2 µM

Next compound, MIC E. helveticus to be filled in.
Query: Quick one: MIC E. helveticus of N=C(N)NCCC[C@H](NC(=O)CN)C(=O)N[C@@H](CCCCN)C(=O)N[C@@H](CCCCN)C(=O)N[C@@H](CCCNC(=N)N)C(=O)N[C@@H](CCCNC(=N)N)C(=O)N[C@@H](CCC(N)=O)C(=O)N[C@@H](CCCNC(=N)N)C(=O)N[C@@H](CCCNC(=N)N)C(=O)N[C@@H](CCCNC(=N)N)C(=O)N1CCC[C@H]1C(=O)N1CCC[C@H]1C(=O)N[C@@H](CCC(N)=O)C(=O)O ?
Reply: 500 µM
